Target: apelin receptor (APJ) (Homo sapiens)
Sequence (P35414 whole entry): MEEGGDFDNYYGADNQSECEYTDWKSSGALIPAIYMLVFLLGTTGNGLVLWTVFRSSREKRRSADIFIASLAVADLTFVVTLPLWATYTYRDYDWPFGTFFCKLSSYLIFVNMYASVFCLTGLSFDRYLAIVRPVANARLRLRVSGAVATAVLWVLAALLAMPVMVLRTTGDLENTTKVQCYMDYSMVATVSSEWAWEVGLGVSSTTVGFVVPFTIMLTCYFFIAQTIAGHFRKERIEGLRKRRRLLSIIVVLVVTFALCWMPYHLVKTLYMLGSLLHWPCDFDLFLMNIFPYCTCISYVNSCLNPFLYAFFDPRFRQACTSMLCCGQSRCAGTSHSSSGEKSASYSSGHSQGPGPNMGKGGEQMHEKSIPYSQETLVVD
Test: In vitro apelin agonist activity (methods of Giddings et al., Apelin-13 as positive control)
Type: cell-based
Conditions: in vitro apelin agonist activity, methods of Giddings et al., Apelin-13 as positive control; read-out: EC50 (nM) Ave
# EC50 per entry
PROPERTY_NAME: EC50 (nM)

SUBSTANCE_SMILES: COc1cccc(OC)c1-c1cc(C(=O)N[C@@H](CCN2CCN(C)CC2)CC(=O)OC(C)(C)C)nn1C1CCCC1
EXPERIMENTAL_SYSTEM: apelin receptor (APJ) (Homo sapiens)
UNIT: nM
READOUT_QUALIFIER: >
OBSERVED_VALUE: 10000

SUBSTANCE_SMILES: COc1cccc(OC)c1-c1cc(C(=O)N[C@@H](CCc2ccccc2)CC(=O)NCc2nnn[nH]2)nn1C1CCCC1
EXPERIMENTAL_SYSTEM: apelin receptor (APJ) (Homo sapiens)
UNIT: nM
READOUT_QUALIFIER: =
OBSERVED_VALUE: 5180

SUBSTANCE_SMILES: CC(F)(F)c1ccccc1-c1cc(C(=O)N[C@@H](CCN2CCC(F)(F)C2)CC(=O)O)nn1C1CCCC1
EXPERIMENTAL_SYSTEM: apelin receptor (APJ) (Homo sapiens)
UNIT: nM
READOUT_QUALIFIER: =
OBSERVED_VALUE: 16

SUBSTANCE_SMILES: COc1cccc(OC)c1-c1cc(C(=O)N[C@@H](CC2CCCC2)C(=O)O)nn1C1CCCC1
EXPERIMENTAL_SYSTEM: apelin receptor (APJ) (Homo sapiens)
UNIT: nM
READOUT_QUALIFIER: =
OBSERVED_VALUE: 424

###

# EC50 per entry
Target: apelin receptor (APJ) (Homo sapiens)
Assay: In vitro apelin agonist activity (methods of Giddings et al., Apelin-13 as positive control)
Assay type: cell-based
Settings: in vitro apelin agonist activity, methods of Giddings et al., Apelin-13 as positive control; read-out: EC50 (nM) Ave
Source text: Characterization of the Apelin Agonist Activity of the Compounds 1:39-47, the contents of which are hereby incorporated by reference in its entirety. Using the methods described in Giddings et al. and Apelin-13 as a positive control.
PROPERTY_NAME: EC50 (nM)

MOLECULE: CC(C[C@@H](CC(=O)O)NC(=O)c1cc(-c2ccccc2C(F)(F)F)n(C2CCCC2)n1)N1CCC(F)(F)C1 (stereo partly drawn)
PROPERTY_NAME: EC50
READOUT_QUALIFIER: =
OBSERVED_VALUE: 648
--
MOLECULE: O=C(N[C@@H](CCN1C(=O)CCCC1=O)Cc1nnn[nH]1)c1cc(-c2ccccc2C(F)(F)F)n(C2CCCC2)n1
PROPERTY_NAME: EC50
READOUT_QUALIFIER: =
OBSERVED_VALUE: 66
--
MOLECULE: COc1cccc(OC)c1-c1cc(C(=O)N[C@@H](/C=C/c2ccncc2)CC(=O)NC2CCC2)nn1C1CCCC1
PROPERTY_NAME: EC50
READOUT_QUALIFIER: >
OBSERVED_VALUE: 10000
--
MOLECULE: COc1cccc(OC)c1-c1cc(C(=O)N[C@@H](CCN2CCCCC2)Cc2nnn[nH]2)nn1C1CCCC1
PROPERTY_NAME: EC50
READOUT_QUALIFIER: =
OBSERVED_VALUE: 235
--
MOLECULE: COc1cccc(OC)c1-c1cc(C(=O)N[C@@H](CCN2CCN(C)CC2)CC(=O)O)nn1C1CCCC1
PROPERTY_NAME: EC50
READOUT_QUALIFIER: >
OBSERVED_VALUE: 10000
--
MOLECULE: O=C(C[C@H](CCN1CCCCC1)NC(=O)c1cc(-c2cscn2)n(C2CCCC2)n1)NC1CCC1
PROPERTY_NAME: EC50
READOUT_QUALIFIER: =
OBSERVED_VALUE: 9390
--
MOLECULE: O=C(O)C[C@@H](NC(=O)c1cc(-c2ccccc2C(F)(F)F)n(C2CCCC2)n1)C(=O)NC1CCCCC1
PROPERTY_NAME: EC50
READOUT_QUALIFIER: =
OBSERVED_VALUE: 205
--
MOLECULE: O=C(O)C[C@@H](CCN1CCCC(F)(F)C1)NC(=O)c1cc(-c2ccccc2C(F)(F)F)n(C2CCCC2)n1
PROPERTY_NAME: EC50
READOUT_QUALIFIER: =
OBSERVED_VALUE: 1870
--
MOLECULE: O=C(C[C@H](CCN1CCC(F)(F)CC1)NC(=O)c1cc(-c2ccccc2C(F)(F)F)n(C2CCCC2)n1)NCc1ccccc1
PROPERTY_NAME: EC50
READOUT_QUALIFIER: =
OBSERVED_VALUE: 920
--
MOLECULE: CC(C)C[C@H](NC(=O)c1cc(-c2ccccc2C(F)(F)F)n(C2CCCC2)n1)C(=O)O
PROPERTY_NAME: EC50
READOUT_QUALIFIER: >
OBSERVED_VALUE: 10000
--
MOLECULE: O=C(O)C[C@H](CCN1C[C@H](F)[C@@H](F)C1)NC(=O)c1cc(-c2ccccc2C(F)(F)F)n(C2CCCC2)n1 [compound 629]
PROPERTY_NAME: EC50
READOUT_QUALIFIER: =
OBSERVED_VALUE: 77
--
MOLECULE: O=C(N[C@@H](CCN1CCCC(F)(F)C1)Cc1nnn[nH]1)c1cc(-c2ccccc2C(F)(F)F)n(C2CCCC2)n1
PROPERTY_NAME: EC50
READOUT_QUALIFIER: =
OBSERVED_VALUE: 25
--
MOLECULE: COc1cccc(OC)c1-c1cc(C(=O)N[C@@H](CCc2ccccc2)CC(=O)NCc2nccs2)nn1C1CCCC1
PROPERTY_NAME: EC50
READOUT_QUALIFIER: =
OBSERVED_VALUE: 3440
--
MOLECULE: COc1cccc(OC)c1-c1cc(C(=O)N[C@H](CCNC2CCC2)CCN2CCCCC2)nn1C1CCCC1
PROPERTY_NAME: EC50
READOUT_QUALIFIER: >
OBSERVED_VALUE: 10000
--
MOLECULE: COc1cccc(OC)c1-c1cc(C(=O)N[C@@H](CCN2CCCCC2)CC(N)=O)nn1C1CCCC1
PROPERTY_NAME: EC50
READOUT_QUALIFIER: >
OBSERVED_VALUE: 10000
--
MOLECULE: O=C(O)C[C@H](CCN1CCCC(F)(F)C1)NC(=O)c1cc(-c2ccccc2Cl)n(C2CCCC2)n1
PROPERTY_NAME: EC50
READOUT_QUALIFIER: =
OBSERVED_VALUE: 151
--
MOLECULE: CC(F)(F)c1ccccc1-c1cc(C(=O)N[C@@H](CCN2C[C@@H](F)[C@@H](F)C2)CC(=O)O)nn1C1CCCC1
PROPERTY_NAME: EC50
READOUT_QUALIFIER: =
OBSERVED_VALUE: 103
--
MOLECULE: COc1cccc(OC)c1-c1cc(C(=O)N[C@H]2CCN(Cc3ccncc3)C(=O)C2)nn1C1CCCC1
PROPERTY_NAME: EC50
READOUT_QUALIFIER: >
OBSERVED_VALUE: 10000
--
MOLECULE: CC(F)(F)c1ccccc1-c1cc(C(=O)N[C@@H](CCN2C[C@H](F)[C@@H](F)C2)CC(=O)O)nn1C1CCCC1 (stereo in doubt)
PROPERTY_NAME: EC50
READOUT_QUALIFIER: =
OBSERVED_VALUE: 44
--
MOLECULE: COc1cccc(OC)c1-c1cc(C(=O)N[C@@H](CCN2CCCCC2)Cc2nccs2)nn1C1CCCC1
PROPERTY_NAME: EC50
READOUT_QUALIFIER: =
OBSERVED_VALUE: 1340
--
MOLECULE: O=C(C[C@H](CCN1CCC(F)(F)CC1)NC(=O)c1cc(-c2ccccc2C(F)(F)F)n(C2CCCC2)n1)Nc1nccs1
PROPERTY_NAME: EC50
READOUT_QUALIFIER: =
OBSERVED_VALUE: 17.5
--
MOLECULE: CCN(CC)CC[C@@H](CC(=O)NC1CCC1)NC(=O)c1cc(-c2c(OC)cccc2OC)n(C2CCCC2)n1
PROPERTY_NAME: EC50
READOUT_QUALIFIER: =
OBSERVED_VALUE: 1840
--
MOLECULE: CC(F)(F)c1ccccc1-c1cc(C(=O)N[C@@H](CCN2CCC[C@@H](F)C2)CC(=O)O)nn1C1CCCC1
PROPERTY_NAME: EC50
READOUT_QUALIFIER: =
OBSERVED_VALUE: 79
--
MOLECULE: O=C(O)C[C@H](CCN1C[C@@H](F)[C@H](F)C1)NC(=O)c1cc(-c2ccccc2C(F)(F)F)n(C2CCCC2)n1
PROPERTY_NAME: EC50
READOUT_QUALIFIER: =
OBSERVED_VALUE: 75
